Recorded CC50 at 24 h for the following molecules
ASSAY METHOD TEXT: in vitro
EXPERIMENTAL CONDITIONS: rat, gh3-tre-luc cells, AC50 (uM) modified / 1000

Some entries whose results are on file:
# MOLECULE, CC50 at 24 h
rows = [
    ("C=CC(=O)OCC(CO)(COC(=O)C=C)COC(=O)C=C [Pentaerythritol triacrylate]", "1.77 µM"),
    ("COc1ccc(C2C(=O)c3ccccc3C2=O)cc1", "> 50 µM"),
    ("Fc1ccc([C@@H]2CCNC[C@H]2COc2ccc3c(c2)OCO3)cc1", "10.7 µM"),
    ("O=C/C=C/c1ccccc1", "> 90 µM"),
    ("NC(=O)c1ccccc1[N+](=O)[O-] [2-Nitrobenzamide]", "> 90 µM"),
]

Please turn your attention to the following entry.
Q: Please report CC50 at 24 h for the following molecule: "CC(C)(N=C=O)c1cccc(C(C)(C)N=C=O)c1"
Ans: 78.6 µM

----------
System: GH3-TRE-Luc cell line
EXPERIMENTAL CONDITIONS: read-out: AC50 (uM) modified / 1000; Tox21_110001=Tox21_113242; viability, 1 nM T3 present, 24 h
QUANTITY: CC50
Give me the value, and tack the unit on after it.

Q: Please report CC50 for the following compound: Nc1ccc(O)cc1 [4-Aminophenol]
Ans: 9.32 µM

----------
System: GH3-TRE-Luc cell line
EXPERIMENTAL CONDITIONS: read-out: AC50 (uM) modified / 1000; Tox21_110001=Tox21_303002; viability, 1 nM T3 present, 24 h
Structures can show the parent of a compound that is named as a salt.
QUANTITY: CC50 (µM)
The figure you give is taken to be in µM; do not add the unit.

Q: Please report CC50 for the following molecule: CN(C)c1ccc(C(=N)c2ccc(N(C)C)cc2)cc1 [Auramine hydrochloride]
Ans: 57.6

----------
ASSAY METHOD TEXT: in vitro
Parameters: species or system GH3-TRE-Luc (rat pituitary); CellTiter-Fluor viability run in parallel with antagonist mode (1 nM T3), loss of viability
EXPERIMENTAL CONDITIONS: rat, gh3-tre-luc cells, AC50 (uM) modified / 1000, Tox21_110001=Tox21_301575, viability, 1 nM T3 present
QUANTITY: CC50 at 24 h

Q: Please report CC50 at 24 h for the following molecule: CCS(=O)(=O)CCSP(=O)(OC)OC [Demeton-S-methylsulphon]
Ans: > 90 µM

----------
System: GH3-TRE-Luc cell line
EXPERIMENTAL CONDITIONS: read-out: AC50 (uM) modified / 1000; Tox21_110001=Tox21_301818; viability, 1 nM T3 present, 24 h
QUANTITY: CC50 (µM)
The figure you give is taken to be in µM; do not add the unit.

Q: Write down the reported CC50 (system: GH3-TRE-Luc cell line) of C[C@]12CC[C@@H]3c4ccc(O)cc4CC[C@H]3[C@@H]1CC[C@@H]2OC(=O)CCC1CCCC1 [Estradiol cypionate]
Ans: 86.1

----------
Recorded EMax (% of Control) trb-coa-agonist-followup-1 for the following molecules
TARGET UNDER TEST: human TRβ ligand-binding domain (Homo sapiens)
Sequence (P10828 217-461 limits assumed): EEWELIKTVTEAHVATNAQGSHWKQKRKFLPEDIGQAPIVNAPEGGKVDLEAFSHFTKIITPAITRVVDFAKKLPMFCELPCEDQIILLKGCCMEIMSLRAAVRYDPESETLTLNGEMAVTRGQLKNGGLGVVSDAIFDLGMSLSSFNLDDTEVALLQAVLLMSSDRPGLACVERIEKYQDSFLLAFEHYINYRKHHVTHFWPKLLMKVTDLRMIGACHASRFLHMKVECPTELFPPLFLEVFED
ASSAY METHOD TEXT: TRb-coa LanthaScreen TR-FRET coactivator (SRC-2 peptide) recruitment, agonist (TOX21_TRB_COA_Agonist_Followup_ratio, aeid 2244)
Type: biochemical
Parameters: host or cells: GeneBLAzer UAS-bla HEK 293T

Some entries whose results are on file:
# MOLECULE, ENDPOINT RESULT
records = [
    ("CC1(C)COP(Oc2ccccc2)OC1", "-0.3 % of Control"),
    ("Cc1ccc(O)cc1 [Cresol]", "14.8 % of Control"),
    ("Cl.NC(CO)(CO)CO [Tromethamine hydrochloride]", "14.8 % of Control"),
    ("CC(C)(c1ccccc1)c1ccc(O)c(C(C)(C)c2ccccc2)c1 [2,4-Bis(1-methyl-1-phenylethyl)phenol]", "13.4 % of Control"),
]

Q: Please report EMax (% of Control) trb-coa-agonist-followup-1 for the following molecule: N[C@@H](Cc1ccc(Oc2cc(I)c(O)c(I)c2)c(I)c1)C(=O)O [3,3',5'-Triiodo-L-thyronine]
Ans: 117.6 % of Control
